- Test system: HepG2
- test protocol: cells
- settings: Homo sapiens, HepG2, 48 h
- Description: Cytotoxicity against Homo sapiens (human) HepG2 cells after 48 hr by MTT assay
Binning of IC50 into classes: b0 = under 100 nM, b1 = from 100 nM up to 600 nM, b2 = 600 nM and over

Please review the following examples before continuing.
O=P1(N(CCCl)CCCl)NCCCO1 (stereo not given) [CYCLOPHOSPHAMIDE ANHYDROUS]; b1
O=[N+]([O-])c1ccc(NP2(=O)NCCCO2)cc1 (stereo not given); b1
NS(=O)(=O)c1ccc(NP2(=O)NCCCO2)cc1 (stereo not given); b1
COc1ccc(NP2(=O)NCCCO2)cc1 (stereo not given); b0
CC1(C)CNP(=O)(Nc2ccccc2)NC1; b2
Nc1ccc(S(N)(=O)=O)cc1 [SULFANILAMIDE]; b0
Cc1ccc(OP2(=O)NCC(C)(C)CN2)cc1; b2

Continue with the next compound.
Request: Input `NS(=O)(=O)c1ccc(NP2(=O)NCCCN2)cc1` ; output its category
Result: b1

These measurements were taken from ChEMBL document CHEMBL3045968.
